Target Or Test System: human NaV1.7 (Homo sapiens, UniProt Q15858)
Construct: permanently transfected with an expression vector containing the full-length cDNA coding for the desired human sodium channel α-subunit; expressed in transfected cells; host or cells: HEK-293
Sequence (Q15858 1-1977 isoform Q15858-3): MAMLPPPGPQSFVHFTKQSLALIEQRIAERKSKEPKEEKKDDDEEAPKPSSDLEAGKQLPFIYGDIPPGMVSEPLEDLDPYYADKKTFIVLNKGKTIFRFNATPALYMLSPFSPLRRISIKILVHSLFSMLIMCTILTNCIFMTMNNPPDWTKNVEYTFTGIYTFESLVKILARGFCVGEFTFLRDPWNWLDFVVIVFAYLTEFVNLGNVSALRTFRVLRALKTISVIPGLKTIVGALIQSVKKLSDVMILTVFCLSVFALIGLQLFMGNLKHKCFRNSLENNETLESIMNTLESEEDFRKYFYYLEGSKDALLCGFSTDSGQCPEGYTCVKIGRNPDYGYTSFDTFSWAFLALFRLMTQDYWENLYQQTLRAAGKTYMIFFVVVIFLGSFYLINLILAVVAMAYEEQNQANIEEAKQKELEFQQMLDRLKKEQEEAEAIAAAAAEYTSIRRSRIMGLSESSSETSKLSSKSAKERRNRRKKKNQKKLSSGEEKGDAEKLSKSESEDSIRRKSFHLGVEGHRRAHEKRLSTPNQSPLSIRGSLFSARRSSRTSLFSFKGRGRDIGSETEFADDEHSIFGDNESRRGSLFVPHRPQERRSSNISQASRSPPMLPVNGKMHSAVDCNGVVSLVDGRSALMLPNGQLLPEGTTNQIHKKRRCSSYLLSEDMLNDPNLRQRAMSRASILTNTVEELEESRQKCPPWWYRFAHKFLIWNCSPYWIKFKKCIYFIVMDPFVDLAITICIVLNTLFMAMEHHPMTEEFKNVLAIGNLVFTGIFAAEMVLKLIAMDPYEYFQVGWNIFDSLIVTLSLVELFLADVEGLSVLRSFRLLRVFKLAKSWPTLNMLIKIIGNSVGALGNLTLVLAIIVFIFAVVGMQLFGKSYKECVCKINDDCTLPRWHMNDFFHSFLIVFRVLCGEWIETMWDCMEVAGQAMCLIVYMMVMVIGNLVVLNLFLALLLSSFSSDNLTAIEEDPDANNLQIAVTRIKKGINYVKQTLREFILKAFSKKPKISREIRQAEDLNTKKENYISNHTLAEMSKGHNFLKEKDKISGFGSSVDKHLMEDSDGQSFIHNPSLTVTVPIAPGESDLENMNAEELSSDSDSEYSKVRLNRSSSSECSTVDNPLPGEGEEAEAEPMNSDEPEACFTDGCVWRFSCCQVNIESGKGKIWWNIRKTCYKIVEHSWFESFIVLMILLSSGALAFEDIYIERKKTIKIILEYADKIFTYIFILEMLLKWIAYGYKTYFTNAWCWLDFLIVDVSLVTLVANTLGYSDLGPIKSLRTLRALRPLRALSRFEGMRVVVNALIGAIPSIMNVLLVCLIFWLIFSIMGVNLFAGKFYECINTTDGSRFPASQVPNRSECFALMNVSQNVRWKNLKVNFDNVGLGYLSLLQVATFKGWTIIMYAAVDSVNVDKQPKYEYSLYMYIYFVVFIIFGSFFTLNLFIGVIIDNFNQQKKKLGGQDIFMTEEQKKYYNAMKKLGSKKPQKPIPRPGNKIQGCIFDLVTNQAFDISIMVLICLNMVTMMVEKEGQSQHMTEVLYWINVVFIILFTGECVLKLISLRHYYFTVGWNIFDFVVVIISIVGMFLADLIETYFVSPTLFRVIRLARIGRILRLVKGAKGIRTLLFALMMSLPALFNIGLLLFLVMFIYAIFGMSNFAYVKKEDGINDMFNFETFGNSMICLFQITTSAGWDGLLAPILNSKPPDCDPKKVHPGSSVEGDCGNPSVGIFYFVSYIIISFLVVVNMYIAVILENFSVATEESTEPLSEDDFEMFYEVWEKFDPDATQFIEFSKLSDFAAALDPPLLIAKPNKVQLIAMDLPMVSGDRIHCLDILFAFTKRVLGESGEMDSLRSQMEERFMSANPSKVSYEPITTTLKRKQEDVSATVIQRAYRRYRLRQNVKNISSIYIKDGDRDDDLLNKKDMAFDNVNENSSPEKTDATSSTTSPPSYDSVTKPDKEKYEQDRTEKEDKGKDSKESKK
Sequence (Q07699 19-218 partner): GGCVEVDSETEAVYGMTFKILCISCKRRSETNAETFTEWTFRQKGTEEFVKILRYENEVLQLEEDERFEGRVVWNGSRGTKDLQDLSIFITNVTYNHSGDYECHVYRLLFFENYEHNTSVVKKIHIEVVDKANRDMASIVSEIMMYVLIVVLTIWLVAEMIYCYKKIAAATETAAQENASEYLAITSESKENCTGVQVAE
Procedure Details: Patch voltage clamp electrophysiology assay (EP), NaV1.7
Type: cell-based
Study Conditions: HEK-293 cells stably expressing NaV1.7 with β1 subunit; whole-cell patch clamp, membrane potential −60 mV (inactivated state)

{"Compound": "CC[C@@H]1CCN(C(=O)c2cc(C3CC3)c(OCC34CC5CC(CC(C5)C3)C4)cc2F)[C@H]1C(=O)O [Example 168b]", "IC50 / nM": 1300}
{"Compound": "O=C(NC(C(=O)O)C1CC1)c1cc(C2CC2)c(COc2cc(Cl)cc(OC(F)(F)F)c2)cc1F (stereo in doubt)", "IC50 / nM": 290}
{"Compound": "O=C(O)[C@@H]1CCCN1C(=O)c1cc(C2CC2)c(OCC23CCC(F)(CC2)CC3)cc1F", "IC50 / nM": 1800}
{"Compound": "CC[C@H](NC(=O)c1cc(C2CC2)c(OCC23CC4CC(CC(C4)C2)C3)cc1F)C(=O)O", "IC50 / nM": 1300}

---

Entries annotated with measured IC50
Target Or Test System: human NaV1.7 (Homo sapiens)
Construct: permanently transfected with an expression vector containing the full-length cDNA coding for the desired human sodium channel α-subunit
Procedure Details: Patch voltage clamp electrophysiology assay (EP), NaV1.7
Study Conditions: HEK-293 cells stably expressing NaV1.7 with β1 subunit; whole-cell patch clamp, membrane potential −60 mV (inactivated state)
Quantity: IC50 (nM)

{"Compound": "CO[C@H]1CN(C(=O)c2cc(C3CC3)c(OCC34CC5CC(CC(C5)C3)C4)cc2F)[C@H](C(=O)O)C1C (stereo partly shown) [Example 205]", "Quantity": "IC50", "Reading Unit": "nM", "Test Result": 2200}
{"Compound": "O=C(O)[C@@H]1C[C@H](O)CN1C(=O)c1cc(C2CC2)c(OCC23CC4CC(CC(C4)C2)C3)cc1F [Example 161]", "Quantity": "IC50", "Reading Unit": "nM", "Test Result": 980}
{"Compound": "O=C(O)[C@@H]1C[C@@H](F)CN1C(=O)c1cc(C2CC2)c(OCC2CCN(Cc3cc(Cl)cc(OC(F)(F)F)c3)CC2)cc1F [Example 105]", "Quantity": "IC50", "Reading Unit": "nM", "Test Result": 220}
{"Compound": "CC[C@H]1CCN(C(=O)c2cc(C3CC3)c(OCC34CC5CC(CC(C5)C3)C4)cc2F)[C@@H]1C(=O)O [Example 168a]", "Quantity": "IC50", "Reading Unit": "nM", "Test Result": 3300}
{"Compound": "CC1(C)CCC(COc2cc(F)c(C(=O)N3CCC[C@H]3C(=O)O)cc2C2CC2)CC1 [Example 68]", "Quantity": "IC50", "Reading Unit": "nM", "Test Result": 520}
{"Compound": "O=C(O)[C@@H]1C[C@@H](F)CN1C(=O)c1cc(C2CC2)c(OCC2(F)CCN(Cc3cc(C(F)(F)F)cc(Cl)c3F)CC2)cc1F [Example 102]", "Quantity": "IC50", "Reading Unit": "nM", "Test Result": 330}
{"Compound": "CN(CC(=O)O)C(=O)c1cc(C2CC2)c(OCC23CC4CC(CC(C4)C2)C3)cc1F [Example 45]", "Quantity": "IC50", "Reading Unit": "nM", "Test Result": 11700}
